Where do these numbers come from? They come from the kinase profiling compilation of Christmann-Franck et al. (2016).

Kindly state residual activity for each of the entries shown.
molecular target: CSNK2A2 (human) (UniProt P19784); test: radiometric filter-binding kinase assay, Kinase HotSpot; conditions: compound 0.5 µM; ATP 10 µM
Sequence (P19784 whole entry, looked up): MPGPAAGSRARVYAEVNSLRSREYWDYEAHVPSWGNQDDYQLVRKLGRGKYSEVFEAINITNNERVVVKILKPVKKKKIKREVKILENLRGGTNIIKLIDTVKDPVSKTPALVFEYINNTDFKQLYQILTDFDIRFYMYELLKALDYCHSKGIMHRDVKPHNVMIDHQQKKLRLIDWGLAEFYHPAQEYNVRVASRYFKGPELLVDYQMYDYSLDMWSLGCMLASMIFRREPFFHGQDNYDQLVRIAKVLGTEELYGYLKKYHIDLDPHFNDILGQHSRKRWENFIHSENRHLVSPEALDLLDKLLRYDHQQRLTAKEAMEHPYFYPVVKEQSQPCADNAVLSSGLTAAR
Lab book: enter the figure in %, no units written.

What measured residual activity goes with `O=C(Nc1cccc(Nc2cc(Nc3cccc(C(F)(F)F)c3)ncn2)c1)C1CC1` ? 94.9

What measured residual activity goes with `COc1ccc(CNC(=O)Nc2ncc([N+](=O)[O-])s2)cc1` ? 92.9

What measured residual activity goes with `O=C1NC(=O)C(c2c[nH]c3ccccc23)=C1c1c[nH]c2ccccc12` ? 92

What measured residual activity goes with `CC(C)[C@H](CO)Nc1nc(Nc2cc(N)cc(Cl)c2)c2ncn(C(C)C)c2n1` ? 106

What measured residual activity goes with `COc1ccc(OC)c2c(=S)c3ccccc3[nH]c12` ? 87.1

What measured residual activity goes with O=C1Nc2ccccc2/C1=C1/Nc2ccccc2/C1=N\OCCC(O)CO (centres undefined) ? 28.3

What measured residual activity goes with `CC(C)c1nn(-c2c(Cl)cccc2Cl)c2nc(Cc3ccc(OCCO)cc3)nc(O)c12` ? 92.2

What measured residual activity goes with `Cn1sc(=O)n(Cc2ccccc2)c1=O` ? 98.5

What measured residual activity goes with `Oc1ccc(Nc2nc(-c3ccc(Cl)cc3)cs2)cc1` ? 96.9

What measured residual activity goes with `O=C(CCCc1ccc(-c2ccccc2F)cc1)Nc1ccc(O)cc1` ? 78.7

What measured residual activity goes with `Cc1nc2cc3nc(-c4cccs4)cnc3cc2n1C` ? 99

What measured residual activity goes with `O=C1Nc2ccccc2/C1=C1\Nc2ccccc2\C1=N/O` ? 75

What measured residual activity goes with `CCN(CC)CCCCN1c2ccccc2Oc2ccc(Cl)cc21` ? 94.6

What measured residual activity goes with `Nc1nccc(-c2c(-c3ccc(F)cc3)ncn2C2CCNCC2)n1` ? 92.2

What measured residual activity goes with `O=C1Cc2c([nH]c3ccc(Br)cc23)-c2ccccc2N1` ? 74.6

What measured residual activity goes with `Nc1nnc2[nH]c3ccccc3nc1-2` ? 94

What measured residual activity goes with `O=C1NC(=O)/C(=C\c2ccc3nccnc3c2)S1` ? 3.08

What measured residual activity goes with `Cn1cnc2cc3c(Nc4cccc(Br)c4)ncnc3cc21` ? 91.7

What measured residual activity goes with `CN(C)C[C@H]1CCn2c(c(C3=C(c4cn(C)c5ccccc45)C(=O)NC3=O)c3ccccc32)C1` ? 92.4
